B1: HDV Ribozyme (parent)
chain: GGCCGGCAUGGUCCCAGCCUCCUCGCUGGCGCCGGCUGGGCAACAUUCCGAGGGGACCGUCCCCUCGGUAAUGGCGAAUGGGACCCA

# Variants of: B1
# procedure-text: self-cleavage, relative activity (ratio to wild type); higher = more cleavage; co-transcriptional
Task for the reader: assign each of the following variants its reported self-cleavage.

Looking up GGCCGGCAUUGUCCCAGCCUCCUCGCUGGCGCCGGCUGGGCAACAUUCCGAGGGGACCGUCCCCUCCGUAAUGGCGAAUGGGACCCA , I see its self-cleavage listed as 0.572

self-cleavage measured on GGCCGGCAUGGUCCCAGCCUCCUCGCUGGCUCCGGCUGGGCAACAUUCCGAGGGGACCGUCCCGUCGGUAAUGGCGAAUGGGACCCA = 0.514

Reported self-cleavage ( GGCCGGCAUGGUGCCAGCCUCCUCGCUGGCGCCGGCUGGGCAACAUUCCGAGGGGACCGUCCCCUCGGUAAUGGAGAAUGGGACCCA ) = 0

So for GGCCGGCAUGGUCCCAGCCUCCUCGGUGGCGCCGGCUGGGCAACAUUCCGAGGGGACCGUCCCCUCGGUAAUGGCGAAUGGGACCGA , the logged self-cleavage turned out to be 0.886

Form: variant = GGCCGGCAUGGUCCCAGUCUCCUCUCUGGCGCCGGCUGGGCAACAUUCCGAGGGGACCGUCCCCUCGGUAAUGGCGAAUGGGACCCA ; self-cleavage = 0.0297

Looking up GGCCUGCAUGGUCCCAGCCUCCUCGCUGGCGCCGGCUGGGCAACAUUCCGAGGGGACCGUCACCUCGGUAAUGGCGAAUGGGACCCA , I found its self-cleavage recorded as 0.369

// self-cleavage lookup, variant = GGCCGGCAUGGUCCCACCCUCCUCGCUGGCGCCGGCUGGGCAACAUUCCGAGGGGACCGUCACCUCGGUAAUGGCGAAUGGGACCCA , result: 0.252

Value of self-cleavage reported for the variant GGCCGGCAUGGUCCCAGCCUCCUCGCUGGCGCCGGCUGGGCUACAUUACGAGGGGACCGUCCCCUCGGUAAUGGCGAAUGGGACCCA is 0.485

GGCCGGCAUGGUCCCAGCCUCCUCGCUGGCGCCGGCUGGGCAACAUUCCGAGGGGACCGUCCCCUCGCUAAUGGCGAAUGGGACCGA yielded self-cleavage of 1.07

The reported value for GUCCGGCAUGGUCCCAGCCUCCUCGCUGGCGCCGGCGGGGCAACAUUCCGAGGGGACCGUCCCCUCGGUAAUGGCGAAUGGGACCCA in terms of self-cleavage is 0.0422

Just so you know, measured self-cleavage for GGCCGGCAUGGUCCCAGCUUCCUCGCUGGCGCCGGCUGAGCAACAUUCCGAGGGGACCGUCCCCUCGGUAAUGGCGAAUGGGACCCA came out at 0.0779

Form field self-cleavage, entry GGCCGGCAUGGUCCCUGGCUCCUCGCUGGCGCCGGCUGGGCAACAUUCCGAGGGGACCGUCCCCUCGGUAAUGGCGAAUGGGACCCA : 0.227

GGCCGGCAUGGUCCCAGCCUCCUCGCUGGCGCCGGCUGGCCAACAUUCCGAGGGGACCGUCCCCUCGUUAAUGGCGAAUGGGACCCA yielded self-cleavage of 0.245

Entry GGACGGCAUGGUCCCCGCCUCCUCGCUGGCGCCGGCUGGGCAACAUUCCGAGGGGACCGUCCCCUCGGUAAUGGCGAAUGGGACCCA — recorded self-cleavage = 0.0875

Noted for AGCCGGCAUGGUCCCAGCCUCCUCGCUGGCGCUGGCUGGGCAACAUUCCGAGGGGACCGUCCCCUCGGUAAUGGCGAAUGGGACCCA : its self-cleavage reads 0.0594

The variant identified as GGCCGGCAUGGUCCCAGCCUCCUCGCUGGCGCCGGCUUGGCAACAUUCAGAGGGGACCGUCCCCUCGGUAAUGGCGAAUGGGACCCA registered its self-cleavage at 0.264

Query GGCCGGCAUGGUCCCAGCCUCCUCGCUGGCGCCGGCUGGGCAACAUUCCGAGGCGACCGUCCCCUCGGUAAUGGCGAAUGGGACGCA yields self-cleavage of 0.724

Cited source for all entries: the RNAGym collection of RNA variant scans (doi:10.7554/elife.80360)
